IC50 for assorted compounds
Molecular target: tankyrase 1 (Homo sapiens, UniProt O95271)
Construct: purchased Trevigen 4700-096-K
Sequence (O95271 1-1327): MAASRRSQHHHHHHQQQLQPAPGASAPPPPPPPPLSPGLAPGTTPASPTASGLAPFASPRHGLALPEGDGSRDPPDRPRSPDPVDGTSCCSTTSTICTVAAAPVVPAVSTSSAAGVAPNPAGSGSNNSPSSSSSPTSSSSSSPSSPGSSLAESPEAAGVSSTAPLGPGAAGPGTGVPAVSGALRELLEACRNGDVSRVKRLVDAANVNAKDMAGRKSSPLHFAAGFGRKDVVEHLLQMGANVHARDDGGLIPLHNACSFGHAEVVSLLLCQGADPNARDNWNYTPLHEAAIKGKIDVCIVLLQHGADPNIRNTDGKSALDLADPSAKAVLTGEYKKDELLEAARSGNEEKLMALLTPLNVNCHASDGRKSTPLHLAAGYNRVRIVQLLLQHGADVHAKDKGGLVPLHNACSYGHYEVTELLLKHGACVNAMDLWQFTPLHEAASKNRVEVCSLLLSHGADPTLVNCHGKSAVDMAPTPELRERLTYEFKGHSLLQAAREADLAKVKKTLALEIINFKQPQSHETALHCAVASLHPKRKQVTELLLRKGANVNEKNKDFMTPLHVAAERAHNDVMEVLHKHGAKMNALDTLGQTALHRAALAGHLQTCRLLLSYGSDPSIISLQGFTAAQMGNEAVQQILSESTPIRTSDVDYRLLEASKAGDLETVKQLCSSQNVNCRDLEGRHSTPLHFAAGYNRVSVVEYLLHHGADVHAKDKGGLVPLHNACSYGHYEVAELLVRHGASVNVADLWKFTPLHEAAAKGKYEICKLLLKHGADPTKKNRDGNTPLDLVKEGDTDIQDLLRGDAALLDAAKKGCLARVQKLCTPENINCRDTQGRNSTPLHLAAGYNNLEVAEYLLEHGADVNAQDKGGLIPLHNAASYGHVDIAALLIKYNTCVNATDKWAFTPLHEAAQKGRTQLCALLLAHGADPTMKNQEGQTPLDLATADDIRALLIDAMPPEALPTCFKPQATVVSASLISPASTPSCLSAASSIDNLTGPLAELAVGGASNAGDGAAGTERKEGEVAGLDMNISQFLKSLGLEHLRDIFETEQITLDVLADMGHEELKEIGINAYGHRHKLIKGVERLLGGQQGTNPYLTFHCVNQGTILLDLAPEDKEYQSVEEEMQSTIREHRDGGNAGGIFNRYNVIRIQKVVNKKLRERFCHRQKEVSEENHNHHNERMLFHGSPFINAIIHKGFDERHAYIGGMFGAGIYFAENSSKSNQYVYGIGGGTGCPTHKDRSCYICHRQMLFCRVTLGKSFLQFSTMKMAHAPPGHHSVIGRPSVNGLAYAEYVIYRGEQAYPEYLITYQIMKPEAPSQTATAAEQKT
Experiment: Analysis of activity of tankyrase 1 (Trevigen kit, ELISA absorbance at 450 nm)
Format: biochemical

| Compound | Measured target | IC50 [µM] |
| --- | --- | --- |
| Cc1ncc2c(=O)[nH]c(N3CCN(c4c(F)cc(OC5COC5)cc4F)CC3)nn12 [compound 12] | tankyrase 1 (Homo sapiens, UniProt O95271) | 0.0963 |
| Cc1ncc2c(=O)[nH]c(N3CCN(c4c(F)cccc4F)CC3)nn12 [compound 15] | tankyrase 1 (Homo sapiens, UniProt O95271) | 0.0179 |
| COCCOc1cc(F)c(N2CCN(c3nn4c(C)ncc4c(=O)[nH]3)CC2)c(F)c1 [compound 2] | tankyrase 1 (Homo sapiens, UniProt O95271) | 0.0318 |
| Cc1ncc2c(=O)[nH]c(N3CCN(c4ccccc4F)CC3)nn12 [compound 1] | tankyrase 1 (Homo sapiens, UniProt O95271) | 0.11 |
